target: human DGKζ (Homo sapiens (Human), UniProt Q13574); assay: DGKζ assay (detergent/lipid micelle substrate); type: biochemical; conditions: detergent/lipid micelle substrate; read-out: DGKζ IC50
Sequence (Q13574 other isoform, or with tags, fused parts or gaps): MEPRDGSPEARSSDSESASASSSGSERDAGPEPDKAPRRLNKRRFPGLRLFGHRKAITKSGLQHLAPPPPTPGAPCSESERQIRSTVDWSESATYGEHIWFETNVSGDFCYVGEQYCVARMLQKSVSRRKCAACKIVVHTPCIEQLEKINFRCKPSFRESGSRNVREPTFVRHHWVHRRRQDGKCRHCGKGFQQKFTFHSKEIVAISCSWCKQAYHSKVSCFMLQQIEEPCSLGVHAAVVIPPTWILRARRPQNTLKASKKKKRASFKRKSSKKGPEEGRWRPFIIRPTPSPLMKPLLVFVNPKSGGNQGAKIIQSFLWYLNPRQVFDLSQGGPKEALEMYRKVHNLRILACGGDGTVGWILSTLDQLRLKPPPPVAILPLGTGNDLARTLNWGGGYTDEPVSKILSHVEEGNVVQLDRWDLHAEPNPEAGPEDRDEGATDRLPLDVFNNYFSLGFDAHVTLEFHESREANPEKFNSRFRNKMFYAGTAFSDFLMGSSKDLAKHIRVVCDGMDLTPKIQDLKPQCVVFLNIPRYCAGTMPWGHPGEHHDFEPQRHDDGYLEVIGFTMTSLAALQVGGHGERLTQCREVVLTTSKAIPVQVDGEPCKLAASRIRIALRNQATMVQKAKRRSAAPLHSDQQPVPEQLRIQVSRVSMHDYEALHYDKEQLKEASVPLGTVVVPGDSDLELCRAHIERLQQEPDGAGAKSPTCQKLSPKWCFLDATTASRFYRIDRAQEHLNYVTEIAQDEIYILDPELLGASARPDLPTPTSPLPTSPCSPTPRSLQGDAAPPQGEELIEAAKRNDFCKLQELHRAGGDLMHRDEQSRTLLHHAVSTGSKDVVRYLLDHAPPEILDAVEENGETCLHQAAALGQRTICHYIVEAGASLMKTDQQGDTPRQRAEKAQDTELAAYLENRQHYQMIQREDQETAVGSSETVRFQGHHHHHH
Param label: returns 1.0 when IC50 < 3 µM, returns 0.0 otherwise, including exact equality.

Q. Please let me know if COc1ccc2c(c1)C(N1CCN(c3c([N+](=O)[O-])c(=O)n(C)c4ccc(C#N)nc34)CC1)CC2 (stereo not shown) shows IC50 below 3 µM.
A. 1.0

Q. Also, COc1ccccc1C(c1ccc(F)cc1)N1CCN(c2c([N+](=O)[O-])c(=O)n(C)c3ccc(C#N)nc23)CC1 (racemic) [Example 18] please.
A. 1.0

Q. Also, COc1ccccc1C(c1ccc(F)cc1)N1CCN(c2c(C#N)c(=O)n(CC3CC3)c3ccc(Br)nc23)CC1 (single isomer, unassigned) [Example 160] please.
A. 0.0

Q. Also, `Cn1c(=O)c(C#N)c(N2CCN(Cc3ccc(Cl)c(O)c3)CC2)c2nc(Cl)ccc21` please.
A. 0.0

Q. Also, Cn1c(=O)c([N+](=O)[O-])c(N2CCN(C(c3ccc(F)cc3)c3ccccc3O)CC2)c2nc(Br)ccc21 (stereo not shown) please.
A. 0.0

Q. Also, `Cn1c(=O)c(C#N)c(N2CCN(Cc3ccc(F)cc3F)CC2)c2nc(Cl)ccc21` please.
A. 0.0

Let's switch to this compound now.
Q. Please let me know if Cc1cccc(C(c2ccc(F)cc2)N2CCN(c3c([N+](=O)[O-])c(=O)n(C)c4ccc(Br)nc34)CC2)c1O (single isomer, unassigned) shows IC50 below 3 µM.
A. 1.0

###

Please go through the items and note down their IC50.
target: UniProt:P23743; test: DGKα LIPGLO assay (extruded liposome substrate); assay type: biochemical
Sequence (P23743 other isoform, or with tags, fused parts or gaps): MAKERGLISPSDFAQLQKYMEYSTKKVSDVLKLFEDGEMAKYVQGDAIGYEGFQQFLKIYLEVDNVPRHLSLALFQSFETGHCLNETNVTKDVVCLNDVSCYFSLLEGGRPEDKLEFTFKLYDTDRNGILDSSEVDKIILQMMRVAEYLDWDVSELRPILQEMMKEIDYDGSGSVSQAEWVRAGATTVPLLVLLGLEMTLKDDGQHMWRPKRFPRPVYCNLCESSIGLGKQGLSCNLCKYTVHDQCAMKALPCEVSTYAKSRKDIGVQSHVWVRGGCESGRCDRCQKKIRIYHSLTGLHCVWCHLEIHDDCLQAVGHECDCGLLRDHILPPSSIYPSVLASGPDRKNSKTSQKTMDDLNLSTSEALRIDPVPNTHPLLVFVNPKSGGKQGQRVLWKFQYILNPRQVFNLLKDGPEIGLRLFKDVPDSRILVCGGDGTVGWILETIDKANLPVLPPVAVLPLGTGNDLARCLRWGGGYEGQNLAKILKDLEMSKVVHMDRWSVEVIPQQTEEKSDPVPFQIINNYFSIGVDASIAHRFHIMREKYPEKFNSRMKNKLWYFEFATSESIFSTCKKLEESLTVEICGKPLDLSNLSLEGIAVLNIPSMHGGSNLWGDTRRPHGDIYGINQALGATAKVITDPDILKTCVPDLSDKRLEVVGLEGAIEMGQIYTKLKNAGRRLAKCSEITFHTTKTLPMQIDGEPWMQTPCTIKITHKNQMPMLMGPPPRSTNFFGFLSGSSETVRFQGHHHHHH
Answers are plain numbers, in µM.

Examples from the recorded data:
Q. Hello, I am looking for reported IC50 with UniProt:P23743 for COc1ncccc1C(c1ccc(F)cc1)N1CCN(c2c(C#N)c(=O)n(C)c3ccc(C)nc23)CC1 (centres unmarked) [Example 254] . Could you help?
A. 1.7

Q. Also, Cc1ccc(C(c2ccccc2)N2CCN(c3c(C#N)c(=O)n(C)c4ccc(Br)nc34)CC2)cc1 (centres unmarked) [Example 431] please.
A. 9

Q. Also, Cc1ccc2c(n1)c(N1CCN(Cc3cccc(F)c3O)CC1)c(C#N)c(=O)n2C [Example 329] please.
A. 5.6

Batch: IC50 for all items listed.
1. COc1cccc(F)c1CN1CCN(c2c(C#N)c(=O)n(C)c3ccc(Cl)nc23)CC1 [Example 335]
2. COc1ccc(CN2CCN(c3c(C#N)c(=O)n(C)c4ccc(Br)nc34)CC2)c(O)c1 [Example 295]
3. Cc1ccc2c(n1)c(N1CCN(C(c3ccc(F)cc3)c3ccc(F)cc3)CC1)c(C#N)c(=O)n2C [Example 226]

A.
1: 1.9; 2: 0.16; 3: 3.9

Q. Hello, I am looking for reported IC50 with UniProt:P23743 for COc1cc(C)ccc1C(c1ccc(F)cc1)N1CCN(c2c([N+](=O)[O-])c(=O)n(C)c3ccc(C#N)nc23)CC1 (centres unmarked) [Example 416] . Could you help?
A. 4.8

###

system: Jurkat AP1-luciferase Reporter; test: DGK AP1-Reporter Assay; format: cell-based; details: Homo sapiens, Jurkat, read-out: API-Luciferase Reporter IC50, Table 3
Please go through the items and note down their IC50.
Give bare numbers, in µM.

Examples from the recorded data:
Q. What does the record list as IC50 for Cn1c(=O)c(C#N)c(N2CCN(CC(O)c3ccc(F)cc3)CC2)c2nc(Br)ccc21 (racemic) ?
A. 4.45

Q. Also, `Cn1c(=O)c(C#N)c(N2CCN(Cc3ccccc3N)CC2)c2nc(Br)ccc21` please.
A. 0.52

Q. Also, `COc1cc(C#N)ccc1CN1CCN(c2c(C#N)c(=O)n(C)c3ccc(Cl)nc23)CC1` please.
A. 10

Q. Also, `Cc1ccc(CN2CCN(c3c(C#N)c(=O)n(C)c4ccc(Cl)nc34)CC2)c(F)c1` please.
A. 1.88

Q. Also, `COc1cccc(Cl)c1CN1CCN(c2c(C#N)c(=O)n(C)c3ccc(Cl)nc23)CC1` please.
A. 2.22

Q. Also, `Cn1c(=O)c(C#N)c(N2CCN(Cc3ccc(C#N)cc3F)CC2)c2nc(Cl)ccc21` please.
A. 7.84

Batch: IC50 for all items listed.
1. Cn1c(=O)c(C#N)c(N2CCN(Cc3cccc(C(C)(C)C)c3O)CC2)c2nc(Cl)ccc21
2. CC(c1ccc(F)cc1)N1CCN(c2c(C#N)c(=O)n(CC3CC3)c3ccc(Br)nc23)CC1 (racemic)

A.
1. 0.18
2. 4.81
